Target: Kelch-like ECH-associated protein-1 (Keap1) (UniProt Q14145 321-609, limits assumed)
Sequence (Q14145 321-609 limits assumed): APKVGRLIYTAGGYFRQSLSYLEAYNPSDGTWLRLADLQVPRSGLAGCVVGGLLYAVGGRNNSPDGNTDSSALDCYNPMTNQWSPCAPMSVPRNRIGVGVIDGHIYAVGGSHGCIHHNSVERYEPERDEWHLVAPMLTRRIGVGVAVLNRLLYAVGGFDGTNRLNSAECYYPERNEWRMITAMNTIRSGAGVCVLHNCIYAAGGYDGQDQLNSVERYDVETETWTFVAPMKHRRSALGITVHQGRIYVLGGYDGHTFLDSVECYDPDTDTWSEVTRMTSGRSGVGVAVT
Assay: fluorescence anisotropy competition assay, displacement of the fluorescent Nrf2 peptide from Keap1
Procedure: The percentage of inhibition was calculated from the fluorescence anisotropy decrease by using equation and plotted against the inhibitor concentration.
Square brackets hold non-standard residues; d marks the D form. 2Nal = N[C@@H](Cc1ccc2ccccc2c1)C(=O)O
assay_endpoint: IC50 (nM)
Please state the figure in nM; there is no need to write the unit.

In: What value of IC50 has been reported for the following binder? cyclo(F[2Nal][dR][dP]PRRFLNAETGE) (SMILES CC(C)C[C@@H]1NC(=O)[C@H](Cc2ccccc2)NC(=O)[C@H](CCCNC(=N)N)NC(=O)[C@H](CCCNC(=N)N)NC(=O)[C@@H]2CCCN2C(=O)[C@H]2CCCN2C(=O)[C@@H](CCCNC(=N)N)NC(=O)[C@H](Cc2ccc3ccccc3c2)NC(=O)[C@H](Cc2ccccc2)NC(=O)[C@H](CCC(=O)O)NC(=O)CNC(=O)[C@H]([C@@H](C)O)NC(=O)[C@H](CCC(=O)O)NC(=O)[C@H](C)NC(=O)[C@H](CC(N)=O)NC1=O, also called cyclo(F-Φ-r-p-P-R-R-F-L-N-A-E-T-G-E)) [BH18]
Out: 1400
